# Assay Overview: NCI Yeast Anticancer Drug Screen. Data for the rad52 strain (AID 147);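 also: 0% = growth of vehicle-treated control cultures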
# Test Parameters: S. cerevisiae rad52 mutant growth inhibition; at 1.2 µM; active compounds read high
About 79,000 compounds went through this panel and 15% of them were active in at least one assay; those are over-represented in the sample as a whole.
Observation Type: growth inhibition (%)
Give a bare numeral; the unit % is implied.

>>> df
                                   compound  numeric_readout
0         CCOC(=O)C#Cc1ccc([N+](=O)[O-])cc1                0
1        CCOC(=O)/C(=C\c1ccc(C#N)cc1)C(C)=O              -40
2       NC1=NNC2(C(N)=N1)c1ccccc1-c1ccccc12              -18
3  Cc1cc(N(CCOS(C)(=O)=O)CCOS(C)(=O)=O)ccc1C=Nc1ccc(-c2nc(Cc3ccccc3)sc2C)cc1                9
4  OC(CCNCc1ccccc1)c1ccc2ccccc2c1 (stereo unspecified)               15

# input For the compound "CN1CCN(C(=O)/C=C/C(=O)c2ccccc2)CC1" , give its reported growth inhibition.
# output 4
